Biological target: Neutrophil Lipoxygenase (Cavia porcellus, UniProt A0A286X958)
Construct: peritoneal neutrophils derived from guinea pigs; endogenous in cells; host or cells: guinea pig peritoneal neutrophils
Sequence (A0A286X958 1-674): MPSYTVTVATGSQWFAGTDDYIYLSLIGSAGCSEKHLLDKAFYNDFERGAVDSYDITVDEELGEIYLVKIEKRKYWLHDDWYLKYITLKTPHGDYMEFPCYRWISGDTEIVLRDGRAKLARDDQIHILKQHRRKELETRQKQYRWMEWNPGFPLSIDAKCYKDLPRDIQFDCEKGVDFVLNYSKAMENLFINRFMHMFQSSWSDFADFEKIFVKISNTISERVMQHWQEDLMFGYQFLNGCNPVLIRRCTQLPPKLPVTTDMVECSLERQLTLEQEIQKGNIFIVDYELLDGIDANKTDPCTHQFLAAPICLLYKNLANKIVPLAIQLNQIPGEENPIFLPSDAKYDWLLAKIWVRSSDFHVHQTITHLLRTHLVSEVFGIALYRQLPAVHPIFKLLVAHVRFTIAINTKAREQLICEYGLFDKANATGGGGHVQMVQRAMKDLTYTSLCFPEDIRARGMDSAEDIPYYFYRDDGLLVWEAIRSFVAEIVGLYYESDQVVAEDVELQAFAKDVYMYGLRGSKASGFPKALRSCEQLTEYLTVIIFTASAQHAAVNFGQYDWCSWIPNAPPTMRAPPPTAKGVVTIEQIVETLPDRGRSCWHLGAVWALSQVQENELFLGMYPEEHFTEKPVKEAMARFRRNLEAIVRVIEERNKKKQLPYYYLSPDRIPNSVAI
Assay: Inhibition of neutrophil lipoxygenase (release and biosynthesis of LTB4 and 5-HETE) in guinea pig neutrophils
Format: cell-based
Conditions: 5-HETE; 10 μg/ml compound; 100 μM arachidonic acid and 20 μM calcium ionophore (A23187); the lower the percentage, the more active; read-out: 5-HETE, % of Control
Description: The ability of these compounds to inhibit lipoxygenase activity in terms of the suppression of the release and biosynthesis of leukotriene B4 (LTB4) and 5-hydroxyeicosatetraenoic acid (5-HETE) was measured as follows. In this assay 3×10^7 peritoneal neutrophils derived from guinea pigs were incubated at 37° C. in Dulbeccos buffer containing 50 mM tris buffer (pH 7.4). […] LTB4 and 5-HETE were quantitated by comparison with the control and the results were expressed as a percent of control.
Label class 1 when remaining activity at 10 µg/mL < 50%; otherwise class 0.

IN: Does the reported remaining activity at 10 µg/mL of the following compound sit strictly below 50%? `O=C1C=C(N2CCN(Cc3ccccc3)CC2)C(=O)c2nccnc21`
OUT: class 0

IN: Does the reported remaining activity at 10 µg/mL of the following compound sit strictly below 50%? `O=C1C=C(N2CCN(c3cccc(C(F)(F)F)c3)CC2)C(=O)c2nccnc21`
OUT: class 1

IN: Does the reported remaining activity at 10 µg/mL of the following compound sit strictly below 50%? `O=C1C=C(N2CCN(c3nc4ccccc4s3)CC2)C(=O)c2nccnc21`
OUT: class 0

IN: Does the reported remaining activity at 10 µg/mL of the following compound sit strictly below 50%? `O=C1C(N2CCN(c3cccc(C(F)(F)F)c3)CC2)=CC(=O)c2ncccc21`
OUT: class 1

IN: Does the reported remaining activity at 10 µg/mL of the following compound sit strictly below 50%? `O=C1C=C(N2CCN(c3nc4ccccc4o3)CC2)C(=O)c2ncccc21`
OUT: class 1

IN: Does the reported remaining activity at 10 µg/mL of the following compound sit strictly below 50%? `O=C1C(N2CCN(c3nc4ccccc4o3)CC2)=CC(=O)c2ncccc21`
OUT: class 1
